# measurement target: T1, Recombinant soluble E protein (0.8E-His) from DENV-2 (DENV-2, UniProt P14340 281-675)
# T1 construct: also called DENV-2 E protein; DV2
# assay: SPR, Biacore T200
readout type: binding result

binder	reported measurement
DG_3CH953-SG182/3CL668-SK1 (antibody, V domains shown) VH: QVQLVQSGPDVEKPGASVKVSCKASGYTFTSNYIHWVRQAPGQGLEWMGVINPRGGSRRSAQKFQGRITMTRDTSTSTVYMELSSLRSEDTAVYYCARGGRALFYDSYTTPFDGGSWWFDPWGQGSLVTVSS VL: DIQLTQSPSSLSASVGDRVTITCQASQDIRKYLNWYQQKPGKAPKLLIYDASNLKTGVPSRFSGSGSGTDFTLTISSLQPEDVATYYCQQFEDLPITFGQGTRLQIKR	binds
DG_3CH953-SG182/3CL666-SK1 (antibody, V domains shown) VH: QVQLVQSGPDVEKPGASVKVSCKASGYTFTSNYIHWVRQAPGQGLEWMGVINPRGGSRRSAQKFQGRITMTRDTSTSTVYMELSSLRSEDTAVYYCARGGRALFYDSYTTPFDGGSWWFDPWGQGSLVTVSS VL: DIQLTQSPSSLSASVGDRVTITCQASQEIRKYLNWYQQKPGKAPKLLIYDASNLKTGVPSRFSGSGSGTDFTLTISSLQPEDVATYYCQQFDDLPITFGQGTRLQIKR	binds
DG_3CH992-SG182/3CL666-SK1 (antibody, V domains shown) VH: QVQLVQSGAEVKKPGASVKVSCKASGYTFTSYYIHWVRQAPGQGLEWMGVINPRGGSRRSAQKFQGRVTMTRDTSTSTVYMELSSLRSEDTAVYYCARGGRALFYDSYTTPFDGGSWWFDPWGQGSLVTVSS VL: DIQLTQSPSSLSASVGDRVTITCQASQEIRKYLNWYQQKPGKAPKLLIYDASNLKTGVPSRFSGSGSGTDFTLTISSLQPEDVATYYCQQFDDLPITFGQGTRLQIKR	binds
